Data provenance: paper PMC6368574

- system-under-test: recombinant MARK4 (Homo sapiens)
- Construct: made in house; host or cells: bacterial cells (Luria-Bertani broth, IPTG induction)
- Sequence (Q96L34 whole entry): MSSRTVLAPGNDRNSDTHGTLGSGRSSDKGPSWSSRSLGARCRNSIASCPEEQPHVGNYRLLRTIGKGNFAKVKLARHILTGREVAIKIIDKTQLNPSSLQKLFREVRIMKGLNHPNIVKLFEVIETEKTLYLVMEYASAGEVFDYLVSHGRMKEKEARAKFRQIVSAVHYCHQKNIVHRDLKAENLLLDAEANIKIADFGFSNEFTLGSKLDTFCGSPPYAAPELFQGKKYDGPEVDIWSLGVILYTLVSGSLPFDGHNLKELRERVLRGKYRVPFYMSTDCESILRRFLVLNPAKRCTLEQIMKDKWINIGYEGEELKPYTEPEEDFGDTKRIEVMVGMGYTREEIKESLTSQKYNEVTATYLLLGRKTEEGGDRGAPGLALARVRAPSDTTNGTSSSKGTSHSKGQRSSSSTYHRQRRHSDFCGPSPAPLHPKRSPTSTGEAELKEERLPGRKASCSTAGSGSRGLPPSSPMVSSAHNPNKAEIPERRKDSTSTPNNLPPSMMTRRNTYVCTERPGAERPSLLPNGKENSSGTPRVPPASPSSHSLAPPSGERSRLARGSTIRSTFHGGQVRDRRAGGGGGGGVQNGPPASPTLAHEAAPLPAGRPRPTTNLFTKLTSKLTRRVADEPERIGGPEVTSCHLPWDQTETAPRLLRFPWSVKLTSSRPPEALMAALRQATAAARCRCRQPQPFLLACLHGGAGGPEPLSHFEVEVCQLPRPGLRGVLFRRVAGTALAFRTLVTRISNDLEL
- experiment-description: ATPase enzyme inhibition assay (Malachite Green)
- Type: biochemical
- measurement-parameters: ATPase inhibition, 20 µM ATP; read-out: IC50 against MARK4
pIC50: −log10 of the molar value.
attribute-measured: pIC50

[
  {
    "cpd-smiles": "CC(=O)c1ccc(NC(=O)Cn2c3ccccc3c(=O)c3cc(C)ccc32)cc1",
    "system-under-test": "recombinant MARK4 (Homo sapiens)",
    "attribute-measured": "pIC50",
    "measurement": "< 4.70"
  },
  {
    "cpd-smiles": "COC(=O)c1ccc(NC(=O)Cn2c3ccccc3c(=O)c3cc(C)ccc32)cc1",
    "system-under-test": "recombinant MARK4 (Homo sapiens)",
    "attribute-measured": "pIC50",
    "measurement": "< 4.70"
  },
  {
    "cpd-smiles": "COc1ccc(NC(=O)Cn2c3ccccc3c(=O)c3cc(C)ccc32)cc1",
    "system-under-test": "recombinant MARK4 (Homo sapiens)",
    "attribute-measured": "pIC50",
    "measurement": "< 4.70"
  }
]
